# System: Mus musculus
# measurement_protocol: Anticonvulsant activity in Webster mouse assessed as protection against yohimbine-HCl-induced clonic seizure at 5 mg/kg, ip administered 30 mins before yohimbine-HCl challenge
# Type: functional
# conditions: route intraperitoneal
The following compounds are shown together with reported ED50 values.

Q: Suppose we examine the compound CC1=CC2=NC(=S)NC(=O)C2C(c2ccccc2)C1 (configuration not stated) ; what ED50 value has been reported?
Ans: 15 mg/kg

Q: Suppose we examine the compound CC1=CC(c2ccccc2)Nc2ncnn21 (configuration not stated) ; what ED50 value has been reported?
Ans: 10 mg/kg

Q: Suppose we examine the compound CC1=CC(c2ccccc2)N=C(NN2C(=O)c3ccc4c5c(ccc(c35)C2=O)C(=O)N(NC2=NC(c3ccccc3)C=C(C)N2)C4=O)N1 (configuration not stated) ; what ED50 value has been reported?
Ans: 15 mg/kg

Q: Suppose we examine the compound NC(=O)N1c2ccccc2C=Cc2ccccc21 [CARBAMAZEPINE] ; what ED50 value has been reported?
Ans: 28 mg/kg

Q: Suppose we examine the compound CC1=CC(c2ccccc2)NC(=S)N1 (configuration not stated) ; what ED50 value has been reported?
Ans: 32 mg/kg

Q: Suppose we examine the compound CCOC(=O)C1C(=O)C=C(C)CC1c1ccccc1 (configuration not stated) ; what ED50 value has been reported?
Ans: 50 mg/kg

Q: Suppose we examine the compound CC1=CC(c2ccccc2)NC(=S)N1CN1CCOCC1 (configuration not stated) ; what ED50 value has been reported?
Ans: 13 mg/kg
